Molecular target: human adenosine A2a receptor (Homo sapiens)
Sequence (P29274 whole entry): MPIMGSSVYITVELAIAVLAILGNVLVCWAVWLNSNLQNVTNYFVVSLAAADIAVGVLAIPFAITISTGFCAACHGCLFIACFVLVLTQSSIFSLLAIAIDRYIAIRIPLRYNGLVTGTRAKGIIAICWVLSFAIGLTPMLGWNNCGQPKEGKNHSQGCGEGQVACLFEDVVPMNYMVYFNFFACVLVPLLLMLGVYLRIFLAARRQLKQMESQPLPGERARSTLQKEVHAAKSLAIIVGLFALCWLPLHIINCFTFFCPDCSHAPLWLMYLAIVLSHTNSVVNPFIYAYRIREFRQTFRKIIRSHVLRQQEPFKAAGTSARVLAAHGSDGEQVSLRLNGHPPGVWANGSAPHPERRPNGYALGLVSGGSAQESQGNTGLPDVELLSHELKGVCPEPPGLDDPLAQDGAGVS
Experiment: Adenosine A2a Receptor Functional Assay (A2AGAL2)
Conditions: CHO-K1 cells, cAMP inducible beta-galactosidase reporter, 15 nM NECA agonist challenge
Text: Adenosine A2a Receptor Functional Assay (A2AGAL2) To initiate the functional assay, cryopreserved CHO-K1 cells overexpressing the human adenosine A2a receptor and containing a cAMP inducible beta-galactosidase reporter gene were thawed, centrifuged, DMSO containing media removed, and then seeded with fresh culture media into clear 384-well tissue culture treated plates (BD #353961) at a concentration of 10K cells/well. […]
pKi: −log10 of the molar value.
PROPERTY MEASURED: pKi

Reference set, count: 3
1) Nc1nc(-c2ccc(C3CC3)o2)nc2sc(Cc3cccnc3)cc12 [Example 19] :: 6.39
2) Cc1ccc(-c2nc(N)c3cc(Cc4ccccn4)sc3n2)o1 [Example 16] :: 8.93
3) CC(O)(c1cc2c(N)nc(-c3ccc(C(F)F)o3)nc2s1)c1ncccc1F (centres unmarked) [Example 30] :: 7.94

[A] Nc1nc(-c2ccc(C(F)F)o2)nc2sc(C(O)c3ncccc3Br)cc12 (centres unmarked) [Example 32]
[B] Nc1nc(-c2ccc(C(F)F)o2)nc2sc(C(O)c3ncccc3F)cc12 (centres unmarked) [Example 23]
[C] Cc1csc(-c2nc(N)c3cc(Cc4ccccn4)sc3n2)n1 [Example 17]
[D] Nc1nc(-c2ccc(C(F)F)o2)nc2sc(C(=O)c3ncccc3F)cc12 [Example 25]
Q: Hey, quick one: sort these by pKi, largest value first please. # list labels per requested ordering
A: A, B, C, D
(A: 8.79, B: 8.42, C: 8.15, D: 7.60)

[a] Nc1nc(-c2ccc(C(F)F)o2)nc2sc(Cc3ccccn3)cc12 [Example 35]
[b] COc1cccnc1C(O)c1cc2c(N)nc(-c3ccc(C(F)F)o3)nc2s1 (centres unmarked) [Example 29]
[c] Nc1nc(-c2ncco2)nc2sc(Cc3cccnc3)cc12 [Example 18]
Q: Hey, quick one: sort these by pKi, largest value first please. # list labels per requested ordering
A: b, a, c
(b: 8.62, a: 8.33, c: 7.52)
